Molecular target: dUTP pyrophosphatase (Plasmodium falciparum 3D7, UniProt Q8II92)
Sequence (Q8II92 whole entry): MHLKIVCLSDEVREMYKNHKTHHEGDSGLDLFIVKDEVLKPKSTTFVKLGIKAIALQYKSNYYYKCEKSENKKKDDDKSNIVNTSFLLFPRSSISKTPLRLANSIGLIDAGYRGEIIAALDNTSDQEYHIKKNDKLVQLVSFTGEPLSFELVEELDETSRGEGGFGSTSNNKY
pKi: −log10 of the molar value.
The label depends only on pKi: condition met if it is at least 4, condition not met if it is smaller.

Req: Does "CC(C)(C)[Si](C)(C)O[C@H]1C[C@H](n2ccc(=O)[nH]c2=O)O[C@@H]1CO" have a reported pKi of at least 4?
Resp: condition not met

Req: # check: pKi of CC(C)(C)[Si](C)(C)OC1CC(n2ccc(=O)[nH]c2=O)OC1CNC(c1ccccc1)(c1ccccc1)c1ccccc1 (stereo unspecified) is greater than or equal to 4
Resp: condition not met

Req: Evaluate "O=c1ccn([C@H]2C[C@H](O)[C@@H](COP(=O)(Oc3ccccc3)Oc3ccccc3)O2)c(=O)[nH]1" : pKi at minimum 4?
Resp: condition not met

Req: API: above_or_equal(metric=pKi, cutoff=4) for item "CCOP(=O)(OCC)OC[C@H]1O[C@@H](n2ccc(=O)[nH]c2=O)C[C@@H]1O[Si](C)(C)C(C)(C)C"
Resp: condition not met

Req: Determine whether this compound has pKi no lower than 4: O=c1ccn(C2C=CC(COC(c3ccccc3)(c3ccccc3)c3ccccc3)O2)c(=O)[nH]1 (stereo unspecified)
Resp: condition met

Measured values drawn from ChEMBL document CHEMBL1140411 for this set.
